Tested on: SR leukemia
Assay: NCI-60 one-dose screen, 48 h (100 = growth as untreated, 0 = no growth, -100 = all killed)
Conditions: 10 µM unless noted
Compounds without any hit were thinned out: in the full panel of roughly 83,000, 20% have a hit.
# label = t if growth >= 30% else f

COMPOUND | LABEL VALUE
CSc1nc2c(c(=O)[nH]1)C(c1ccc(Cl)cc1)C1=C(N2)/C(=C/c2ccc(Cl)cc2)CNC1 (stereo not given) | f
O=C(CSc1nc2c(n1Nc1ccccc1)-c1ccccc1SC2)Nc1nc(-c2ccc(Cl)cc2)cs1 | f
COc1ccc(-c2nc3sccn3c2-c2ccnc(S(C)(=O)=O)n2)cc1 | t
O=C(CSc1nnc(Nc2ccccc2)s1)NCCc1ccc(F)cc1 | t

Consider the additional compound presented here.
growth >= 30% for Cn1cnc([N+](=O)[O-])c1S(=O)(=O)Oc1ccc(Cl)cc1 ?
f

---

Overview of reported growth across a group of compounds:
System: ACHN renal
Assay: NCI-60 one-dose screen, 48 h (100 = growth as untreated, 0 = no growth, -100 = all killed)
Conditions: 10 µM unless noted
This is part of a sample that, as a whole, favours compounds with a hit. Of some 83,000 tested, about 20% had one in any assay.
The figure you give is taken to be in %; do not add the unit.

# count of solved cases: 10
SMI | STUDY TARGET | RECORDED VALUE
COc1cccc(-c2nnc(N)o2)c1 | ACHN renal | 103
c1ccc(-c2nnc(Nc3nnc(-c4ccccc4)s3)s2)cc1 | ACHN renal | 96
Cc1nc2c(O)cccc2cc1CO | ACHN renal | 110
Clc1ccc([C@@H]2C[C@@H]3Cc4cc(Br)c5ccccc5c4N2O3)c(Cl)c1 | ACHN renal | 81.6
O=Cc1c[nH]c2ccc(NC(=O)OCc3ccccc3)cc12 | ACHN renal | 108
COc1cc(OC)c2sc(-c3ccc(-n4cncc4-c4ccc(N)cc4)cc3)nc2c1 | ACHN renal | 79.7
Cc1cc(C(C)(C)c2cc(C)c(O)c(CN(C)C)c2)cc(CN(C)C)c1O | ACHN renal | 86.2
Nc1nc(SCc2ccccc2Cl)c(-c2ccccc2)c(SCc2ccccc2Cl)n1 | ACHN renal | 91.4
COc1cc(-c2cc(C(=O)Nc3nc4ccccc4s3)nc3cc(-c4ccccc4)nn23)cc(OC)c1OC | ACHN renal | 101
O=C1CC(=O)N(c2ccccc2)O1 | ACHN renal | 97.4

Note: attention shifts to another entry.
Looking up Cc1nc(N)[nH]c(=O)c1C , I see its growth listed as 111

---

System: A498 renal
Test: NCI-60 one-dose screen, 48 h
Settings: 10 µM unless noted
Compounds without any hit were thinned out: in the full panel of roughly 83,000, 20% have a hit. Activity calls are given as the source filed them. Rule for the calls: active = growth percent below 10; inactive = the rest.
Select the matching outcome among TRUE for active, FALSE for inactive

Study these solved cases before continuing.
COMPOUND | STUDY TARGET | LABEL VALUE
Cc1ccc(NC(=O)Nc2ccc(-c3cccnc3)cc2N2CCC(CO)CC2)cc1 | A498 renal | TRUE
Cc1cc2c(cc1C)Nc1sc(NC(=O)CN3CCN(C)CC3)nc1C(=O)N2 | A498 renal | FALSE
ClC1=C(Cl)C(=C2C(Cl)=C(Cl)C(Cl)=C2Cl)C(Cl)=C1Cl | A498 renal | FALSE
NS(=O)(=O)c1ccc(NC2=C(Cl)C(=O)c3ccccc3C2=O)cc1 | A498 renal | FALSE
O=C(Nc1cccc(-n2cc(-c3ccncc3)c(-c3ccc(O)c(Cl)c3)n2)c1)Nc1ccc(Cl)c(C(F)(F)F)c1 | A498 renal | FALSE

Which outcome did this test record for the compound CCn1c2ccccc2c2ccc(C(C)=O)cc21 ?
FALSE

Which outcome did this test record for the compound COc1ccc2[nH]cc(/C=C3/C(=O)Nc4ccc(F)cc43)c2c1 ?
FALSE

Which outcome did this test record for the compound Cc1cc(C)c2c(c1)N1OC(C2)C[C@H]1/C=C/c1ccccc1 (some centres undefined) ?
FALSE

---

Tested on: NCI-H23 lung
Experiment: NCI-60 one-dose screen, 48 h (100 = growth as untreated, 0 = no growth, -100 = all killed)
Settings: 10 µM unless noted
Method: Growth inhibition of the NCI-H23 human Non-Small Cell Lung tumor cell line is measured as a screen for anti-cancer activity. Cells are grown in 96 well plates and exposed to the test compound for 48 hours. Compounds are tested at a single concentration, which is 10^-5 M for most compounds. The reported endpoint is percent growth (GI% or GIPRCNT), where numbers from 0 - 100% represent growth inhibition, and numbers from -100% - 0 represent cell death. […]
Compounds without any hit were thinned out: in the full panel of roughly 83,000, 20% have a hit.
The threshold is 80%. Values of growth beneath it are tagged true; values meeting or exceeding it are tagged false.

MOLECULE | LABEL VALUE
C[n+]1c2ccccc2c(NC2CCNCC2)c2[nH]c3ccccc3c21 | true
C=C(C)[C@@H]1C/C=C(/C=O)CC[C@@H]2O[C@@]2(C)CC/C=C(\C)CC1 | false
Cn1cc(-c2csc(-c3cn(C)c4ncccc34)n2)c2cccnc21 | false
O=C1CCCN1C1CCN(Cc2cc3ccccc3[nH]c2=O)c2ccccc21 (stereo not given) | false

Answer whether the molecule COc1ccc(-c2cn(-c3ccccc3)c(-c3ccccc3)n2)cc1OC has growth strictly less than 80%
true

---

Tested on: KM12 colon
Assay: NCI-60 one-dose screen, 48 h
Conditions: 10 µM unless noted
About 83,000 compounds went through this panel and 20% of them were active in at least one assay; those are over-represented in the sample as a whole. Activity calls are given as the source filed them. How the source made its calls: active means growth percent below 10; inactive means the rest.
Select the matching outcome among y (active), n (inactive)

Study these solved cases before continuing.
COMPOUND | LABEL VALUE
CCCn1cnc2c1c(=O)n(CCCCC(C)=O)c(=O)n2C | n
CCC(O)C(C)(C)C (stereo not given) | n

Consider the additional compound presented here.
Which outcome did this test record for the compound CC[C@@H]1OC(=O)[C@H](C)[C@@H](O[C@H]2C[C@@](C)(OC)[C@@H](O)[C@H](C)O2)[C@H](C)[C@@H](O[C@@H]2O[C@H](C)C[C@H](N(C)C)[C@H]2O)[C@](C)(O)C[C@@H](C)[C@@H]2N[C@@H](COCCOC)O[C@H]([C@H]2C)[C@]1(C)O ?
n

---

Tested on: SN12C renal
Assay: NCI-60 one-dose screen, 48 h (100 = growth as untreated, 0 = no growth, -100 = all killed)
Settings: 10 µM unless noted
About 83,000 compounds went through this panel and 20% of them were active in at least one assay; those are over-represented in the sample as a whole.
Overview of reported growth across a group of molecules:
The figure you give is taken to be in %; do not add the unit.

# count of solved cases: 3
MOLECULE | RECORDED VALUE
Nc1nc(SCC2(CCl)COC2)c2[nH]cnc2n1 | 100
Nc1ccc(C2=Nc3cccc4cccc(c34)S2)cc1 | 94.2
COc1ccc(-c2csc(NC(=O)c3cc(OC)c(OC)c(OC)c3)n2)cc1 | 98.7

Looking up C=C(C[C@](O)(C(=O)/C=C/c1ccc(Cl)cc1)C(=O)OC)c1ccccc1 , I see its growth listed as 74.8

Looking up CCN(CC)CCNc1ccc(Cl)cc1Cl , I see its growth listed as 113

Looking up CCCCCCCCCCC[C@@H](C[C@H]1OC(=O)[C@H]1CCCCCC)OC(=O)[C@@H](CC(C)C)NC=O , I see its growth listed as 43.9

Looking up COc1cc(C2NC(c3ccc(Cl)cc3)C(C)/C(=N/NC(N)=S)C2C)cc(OC)c1OC (stereo not given) , I see its growth listed as 94.7

Looking up COc1ccc(-c2noc(N)c2-c2cc(OC)c3c(c2)OCO3)cc1 , I see its growth listed as 35.8

Looking up COc1ccc(Cn2cc3c(c2-c2ccccc2)CCc2cncnc2-3)cc1 , I see its growth listed as 62.7

Looking up Cc1cc(Cl)ccc1Nc1nc(C(F)(F)F)ccc1C(=O)NCC(=O)N/N=C/c1c(Cl)cccc1Cl , I see its growth listed as 78.3

Looking up COc1ccc2c(c1)C(=O)c1c-2c(=O)n(CCCCCCC(=O)NO)c2ccccc12 , I see its growth listed as 8.66

Looking up CCN1CCN(c2cc(-c3cn[nH]c3-c3cc(C)cc(OC)c3)nc(-c3cccnc3)n2)CC1 , I see its growth listed as 85

Looking up O=C(CSc1nc2c(n1Nc1ccccc1)-c1ccccc1SC2)Nc1nc(-c2ccc(Cl)cc2)cs1 , I see its growth listed as 73.8

Looking up Cc1c(C(N)=O)sc2nc(SCC(=O)Nc3ccc(Cl)cc3)n(-c3ccccc3)c(=O)c12 , I see its growth listed as 95.2

---

Test system: OVCAR-5 ovarian
Test: NCI-60 one-dose screen, 48 h (100 = growth as untreated, 0 = no growth, -100 = all killed)
Details: 10 µM unless noted
The panel holds about 83,000 compounds, 20% with a hit somewhere; the sample as a whole holds those more often.
Overview of reported growth across a group of compounds:
The figure you give is taken to be in %; do not add the unit.

COMPOUND | STUDY TARGET | growth (%)
COC(=O)[C@]1(CCSC)N[C@H](c2cn(-c3ccccc3)nc2C)[C@@H]2C(=O)N(c3ccc(C)cc3)C(=O)[C@@H]21 | OVCAR-5 ovarian | 94.6
CCOC(=O)C(Cc1ccccc1)(C(=O)OCC)C(Br)C(=O)c1ccccc1 (configuration not stated) | OVCAR-5 ovarian | 98.1
COc1ccc2[nH]c(-c3ccccc3)cc2c1 | OVCAR-5 ovarian | 109
CCOC(=O)/C=C(/C)Sc1cc(O)c2ccccc2c1O | OVCAR-5 ovarian | 93

Looking up Cc1cc(N2CCOCC2)nc(N2CCOCC2)n1 , I see its growth listed as 99.7

Looking up COc1ccc(/C=C2\NC(=S)NC2=O)cc1 , I see its growth listed as 95.2

Looking up CN(CCOc1ccc(CC2SC(=O)NC2=O)cc1)c1ccccn1 (configuration not stated) , I see its growth listed as 95.2

Looking up O=C(C(Br)Br)C(Br)C(Br)c1ccccc1 (configuration not stated) , I see its growth listed as 108

Looking up CCN1C2=C(SC(=S)C1=C1SC(C(=O)OC)=C(C(=O)OC)S1)SC(=Nc1ccc(OC)cc1)C2=O , I see its growth listed as -24.6

Looking up c1cncc(CNc2ccccc2-c2nnc(Nc3ccc4c(c3)OCO4)o2)c1 , I see its growth listed as 25.2

Looking up CC(=O)c1cc(C(=O)c2ccc3c(c2)Sc2ccccc2N3)c2c(C)cc(C)cn12 , I see its growth listed as 39.7

Looking up C[C@]12CC[C@@H]3c4ccc(O)cc4CC[C@H]3[C@@H]1CC[C@@H]2NS(=O)(=O)c1cccc(Br)c1 , I see its growth listed as 97.7

Looking up COc1ccccc1[C@H]1c2[nH]c3ccccc3c2C[C@H]2C(=O)N(CCCCCCC(=O)NO)CC(=O)N12 , I see its growth listed as 26.4

Looking up Cc1cc2c(C#N)n3c(c2cc1C)C(=O)C(c1ccccc1)Oc1ccccc1-3 (configuration not stated) , I see its growth listed as 48.6

Looking up Cc1ccsc1/C=C/C1=NCCCN1C , I see its growth listed as 111

Looking up Nc1ccccc1-c1ccc([N+](=O)[O-])cc1 , I see its growth listed as 75

Looking up CCOC(=O)C(C(C)=O)c1nc2sc3cc(Cl)ccc3n2c(=N)c1C#N (configuration not stated) , I see its growth listed as 114

Looking up CCCCCCOc1ccc(/C=N/NC(N)=S)cc1 , I see its growth listed as 84.5

Looking up CC1CC(C)/C(=N/NC(N)=O)C(C(O)CC2CCC(=O)NC2=O)C1 (configuration not stated) , I see its growth listed as 52.1
